test: Cmax in ICR mouse at 15 mg/kg, iv administered and measured for 1 min to 12 hrs by LC/MS/MS analysis; assay type: ADME, organism-based; design: dose 15 mg/kg, route intravenous; details: in vivo
Endpoint Label: Cmax (ng/mL)
Supply the numeric figure in ng/mL, leaving out any unit text.

Q. Report Cmax, nothing else, for this molecule: CNc1nc(Nc2cnc(C#N)c(O[C@@H]3CCCNC3)c2)ncc1-c1cnn(C)c1
A. 849

====

assay: Volume of distribution at steady state in ICR mouse at 15 mg/kg, iv administered and measured for 1 min to 12 hrs by LC/MS/MS analysis; format: ADME, organism-based; settings: in vivo, read-out: Vdss
Endpoint Label: Vd (L/kg)
Supply the numeric figure in L/kg, leaving out any unit text.

Q. Report Vd, nothing else, for this compound: CNc1nc(Nc2cnc(C#N)c(O[C@@H]3CCCNC3)c2)ncc1-c1cnn(C)c1
A. 6.42
